Biological target: T1, extracellular domain of activin receptor type IIB (ActRIIBecd), biotinylated (Homo sapiens (Human), UniProt Q13705 27-117, amino-biotinylated with amine-PEG3-Biotin)
T1 construct: immobilised on a streptavidin-coated sensor chip; also called biotinylated ActRIIBecd; extracellular domain of ActRIIB
T1 sequence: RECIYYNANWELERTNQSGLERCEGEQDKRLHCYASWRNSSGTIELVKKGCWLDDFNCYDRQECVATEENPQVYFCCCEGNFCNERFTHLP
Experiment: BIAcore SPR, biotinylated ActRIIBecd on chip; SD ±12.74 nM
pKd: −log10 of the molar value.
measurement_label: pKd

Recombinant polypeptide of clones 10 + 15 (designed binder) AQAKHKQRKRLKSSCKRHPLYVDFSDVGWNDWIVAPPGYHAFYCHGECPFPLADHLNSTNHAIVQTLVNSV ... 7.50

src = patent US20190071480A1
